# ASSAY TARGET: CLK3 (Mus musculus)
# Sequence (O35492 whole entry): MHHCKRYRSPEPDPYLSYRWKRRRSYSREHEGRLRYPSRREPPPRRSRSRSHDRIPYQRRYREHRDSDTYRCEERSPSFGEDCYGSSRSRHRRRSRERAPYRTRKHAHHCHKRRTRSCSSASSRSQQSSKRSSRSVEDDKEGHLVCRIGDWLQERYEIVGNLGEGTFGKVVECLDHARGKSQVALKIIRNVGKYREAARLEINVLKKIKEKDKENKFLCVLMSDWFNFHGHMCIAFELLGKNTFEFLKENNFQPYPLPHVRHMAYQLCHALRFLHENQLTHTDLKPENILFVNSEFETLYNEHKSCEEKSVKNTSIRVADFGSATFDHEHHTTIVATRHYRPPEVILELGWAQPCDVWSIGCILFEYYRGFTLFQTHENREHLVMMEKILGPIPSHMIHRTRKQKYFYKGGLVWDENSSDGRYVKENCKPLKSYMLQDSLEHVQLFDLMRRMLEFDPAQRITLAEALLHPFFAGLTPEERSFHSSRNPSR
# ASSAY SUMMARY: Protein kinase assay
# STUDY CONDITIONS: IC50 CLK3, 15 μmol/L ATP
MEASURED ENDPOINT: IC50 (µM)
One number for each entry, in µM.

Worked set:
COMPOUND | ASSAY TARGET | DATA VALUE
COc1cc(/C=C2\N=C(N)NC2=O)ccc1O [PAC1, polyandrocarpamine A] | CLK3 (Mus musculus) | 2.3
NC1=N/C(=C\c2ccc(O)c(O)c2)C(=O)N1 [Polyandrocarpamine B] | CLK3 (Mus musculus) | 8.6

Now take the following compound into account.
Fill in: IC50 of NC1=N/C(=C\c2ccc(O)c(O)c2)C(=O)N1 [PAC2, polyandrocarpamine B] is ___
9.2
